Data origin: patent US10287255B2

molecular target: human recombinant HDAC1 (Homo sapiens, UniProt Q13547); test: HDAC1 enzyme activity inhibition assay (in vitro, fluorimetric); settings: human recombinant HDAC1, fluorimetric kit, 30° C. 60 minutes
Sequence (Q13547 whole entry): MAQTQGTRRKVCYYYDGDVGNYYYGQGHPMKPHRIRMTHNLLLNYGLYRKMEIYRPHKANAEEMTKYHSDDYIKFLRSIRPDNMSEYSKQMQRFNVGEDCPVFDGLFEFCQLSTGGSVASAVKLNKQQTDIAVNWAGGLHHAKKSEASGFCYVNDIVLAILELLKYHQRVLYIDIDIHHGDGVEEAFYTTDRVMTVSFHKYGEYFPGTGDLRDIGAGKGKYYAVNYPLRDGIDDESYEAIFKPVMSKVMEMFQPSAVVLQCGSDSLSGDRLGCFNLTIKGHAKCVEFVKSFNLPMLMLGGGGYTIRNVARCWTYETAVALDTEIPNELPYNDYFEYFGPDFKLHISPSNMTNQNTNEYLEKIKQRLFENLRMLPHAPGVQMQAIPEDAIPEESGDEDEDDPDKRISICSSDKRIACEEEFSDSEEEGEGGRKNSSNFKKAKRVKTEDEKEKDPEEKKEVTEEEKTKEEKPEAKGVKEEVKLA
reportedEndpoint: IC50 (µM)

Worked examples follow.
> print(dat)
                                   compound                        experimentaltarget  quantitativeresult
1  C[C@@H]1CN(Cc2ccc(C(=O)NO)cc2)C[C@H](C)N1C(=O)c1ccccc1 [Compound 083]  human recombinant HDAC1 (Homo sapiens, UniProt Q13547)                   2
2  C[C@@H]1CN(Cc2ccc(C(=O)NO)cc2)C[C@H](C)N1Cc1ccc(CN2CC[C@@H](F)C2)cc1 [Compound 411]  human recombinant HDAC1 (Homo sapiens, UniProt Q13547)                 4.3

I = C[C@@H]1CN(Cc2ccc(C(=O)NO)cc2)C[C@H](C)N1Cc1ccccc1C1=CCN(S(C)(=O)=O)CC1 [Compound 481]
II = C[C@@H]1CN(Cc2ccc(/C=C/C(=O)NO)cc2)C[C@H](C)N1C(=O)Nc1cccc(-n2cccc2)c1 [Compound 321]
III = C[C@@H]1CN(Cc2ccc(C(=O)NO)cc2)C[C@H](C)N1Cc1cccc(CN2CCCC2)c1 [Compound 427]
List these items ordered by IC50, big to small. Output the labels ranked as instructed. I, III, II
